# System: T-47D breast
# protocol-summary: NCI tumour cell line growth inhibition, 48 h

| molecule | unit-spec | value-qualifier | TGI |
| --- | --- | --- | --- |
| CC(=O)OCC1OC(O[C@@H]2c3c(O)c4c(c(O)c3C3=C(NN(c5ccc([N+](=O)[O-])cc5[N+](=O)[O-])[Se]3=O)[C@@]2(C)O)C(=O)c2ccccc2C4=O)C(OC(C)=O)C(OC(C)=O)C1OC(C)=O (some centres undefined) | µM | = | 1.46 |
| C=C1C(=O)O[C@H]2[C@H]1CC/C(Cn1cc(-c3ccccc3)nn1)=C\CC[C@@]1(C)O[C@@H]21 | µM | = | 3.94 |
| COc1ccc(-c2nc(-c3cn(C)c4ncccc34)cs2)cc1 | µM | > | 100 |
| CC1(C)OCC(CO)(Nc2nc(N3CC3)nc(N3CC3)n2)CO1 | µM | = | 45 |
| CC(NNC(=S)N1CCCCCC1)c1ccc2ccccc2n1 (centres undefined) | µM | = | 28.7 |
| C[N+](C)(CCCCCC[N+](C)(C)CCCN1C(=O)c2cc3ccccc3cc2C1=O)CCCN1C(=O)c2ccccc2C1=O | µM | > | 37.5 |
| O=C(O)C1CC(c2ccccc2)=NN1c1ccccc1 (centres undefined) | µM | > | 100 |
| CC(=O)OC1COC(n2c(N)c(C#N)c(C)c(C#N)c2=S)C(OC(C)=O)C1OC(C)=O (centres undefined) | µM | > | 100 |
| O=[N+]([O-])c1cccc2nccc(NCC(O)CO)c12 (centres undefined) | µM | = | 96.1 |
| COC(=O)[C@H](Cc1ccccc1)NC(=O)N1CCN(C(=O)N[C@@H](Cc2ccccc2)C(=O)OC)CCN(C(=O)N[C@@H](Cc2ccccc2)C(=O)OC)CC1 | µM | > | 100 |
| CC1NC(/C(=C/c2ccccc2O)NC(=O)c2ccccc2)OC1=O (centres undefined) | µM | > | 50 |
| Cn1c(=O)c2[nH]c(CS(=O)(=O)Cc3nc4c([nH]3)c(=O)n(C)c(=O)n4C)nc2n(C)c1=O | µM | > | 100 |
| O=c1cc(-c2cccc(OC(F)(F)F)c2)[nH]c2cc3c(cc12)OCO3 | µM | > | 100 |
| CC1C[C@]2(C)C(=S)Nc3ccccc3[C@@H]2Nc2ccccc21 (some centres undefined) | µM | = | 41 |
| Cc1cc2c(F)c(Oc3ncnn4cc(OC[C@@H](C)OC(=O)[C@H](C)N)c(C)c34)ccc2[nH]1 | µM | = | 31.7 |
| CCSc1nc(N=Cc2cccs2)c2cn[nH]c2n1 | µM | = | 95 |
| O=C1CCCc2cc3c(cc21)CCC3C(=O)O (centres undefined) | µM | > | 100 |
| CCOC(=O)c1nc2ccc(C(F)(F)F)cc2nc1Oc1ccc(F)cc1 | µM | > | 100 |
| COC12C=CC(CC1)C1C(=O)c3c(C)c(C)n(C)c3C(=O)C12 (centres undefined) | µM | > | 100 |

---

The compounds listed here are annotated with their TGI.
# Test system: MALME-3M melanoma
# protocol-summary: NCI tumour cell line growth inhibition, 48 h

| compound | TGI |
| --- | --- |
| Cc1cc2oc(=O)[nH]c(=S)c2c(C)c1C | > 100 µM |
| C[N+](C)(CCCCCC[N+](C)(C)CCCN1C(=O)c2cc3ccccc3cc2C1=O)CCCN1C(=O)c2ccccc2C1=O | > 37.5 µM |
| COc1ccc(/C=C2/C[N+](C)(C)C/C(=C/c3ccc(OC)cc3)C2=O)cc1 | 61.3 µM |
| CC(C)(C)N1NC1C1NN1C(C)(C)C (stereo unspecified) | > 100 µM |
| O=C1C(=O)N(c2ccc(Cl)c(Cl)c2)C(=O)C(=O)C1c1nc2ccccc2o1 | > 100 µM |
| OC1CC(O)c2c(Cl)sc(Cl)c21 (stereo unspecified) | > 100 µM |
| COc1ccc(C2C(Cl)C(=O)N2NC(=O)Cc2ccccc2)cc1 (stereo unspecified) | > 100 µM |
| Cc1cc(S(=O)(=O)Nc2nnc(-c3ccccc3)c(-c3ccccc3)n2)c(SCc2ccccc2)cc1Cl | 38.7 µM |
| CSc1cc(Cl)c(C)cc1S(=O)(=O)NC(=O)NNc1ccc(F)c(Cl)c1 | > 100 µM |
| CCOC(=O)c1ccc(N2C(=O)/C(=C\OC)c3ccccc3C2=O)cc1 | > 100 µM |
| CCCNC(=S)/N=C\c1c(O)c2ccccc2oc1=O | > 100 µM |
| COc1cc(-c2coc3c(OC)c(OC4OC(CO)C(O)C(O)C4O)c(OC)cc3c2=O)cc(OC)c1C (stereo unspecified) | 29.7 µM |
| O=S(=O)(c1ccc(I)cc1)N(c1ccccc1)S(=O)(=O)C(F)(F)C(F)(F)C(F)(F)C(F)(F)F | > 100 µM |
| Nc1ccccc1C#C/C=C\C#Cc1ccc(Cl)cc1Cl | 17.2 µM |
| COC(=O)C1(O)c2ccccc2N=C2C(=O)c3ccccc3N21 (stereo unspecified) | > 100 µM |
| Cc1nc2cccc(NCc3ccc(C(=O)NO)cc3)c2c(=O)n1-c1ccccc1 | 3.26 µM |
| CC(c1cccc2ccccc12)/[N+]([O-])=C/c1ccccc1 (stereo unspecified) | > 100 µM |
| Cc1ccc2c(N)c(C(=O)N[C@H]3CCc4cc(N5CC6CCC(C5)N6)ccc4C3)sc2n1 | 2.04 µM |
| CC1=C(OC2OC(CO)C(O)C(O)C2O)C(=O)C[C@H]2C1=CC[C@@H]1[C@@]2(C)C(=O)C[C@]2(C)[C@@H]([C@@](C)(O)C(=O)CCC(C)(C)O)[C@H](O)C[C@@]12C (stereo partly specified) | > 100 µM |
| C[C@H]1CCC/C=C/[C@@H]2C[C@H](O)C[C@H]2[C@H](O)[C@@H](S(=O)CCN(C)C)CC(=O)O1 (stereo partly specified) | 0.42 µM |
| COc1ccc2[nH]c(Cl)c(/C=C3/C(=O)N(C)c4ccccc43)c2c1 | > 100 µM |
